Tested on: EVSA-T (human breast carcinoma)
test_protocol: Anti-proliferative activity, Alamar Blue assay, EVSA-T
Type: cell-based
experimental_conditions: EVSA-T cell line, 72 hours, Alamar Blue; dihydrochloride; read-out: EVSA-T prolif
Counter-ions that a name gives are not always drawn.
quantity_name: EC50 (nM)
Answers are plain numbers, in nM.

Observe how each entry below is paired with its result.
molecule	quantity_name	reported_result
CCC1CN(C[C@H]2CN[C@H](C)CN2CC(=O)N2CC(C)(C)c3ncc([C@@H](O)c4ccc(F)cc4)cc32)C(=O)CO1 (single isomer, unassigned) [Example 111, dihydrochloride]	EC50	77
CCCC(O)c1cnc2c(c1)N(C(=O)CN1C[C@@H](C)NC[C@@H]1CN1Cc3ccccc3C1=O)CC2(C)C (single isomer, unassigned) [Example 90, dihydrochloride]	EC50	13
CCCC(O)c1cnc2c(c1)N(C(=O)CN1C[C@@H](C)NC[C@@H]1CN1Cc3ccccc3C1=O)CC2(C)C (single isomer, unassigned) [Example 91, dihydrochloride]	EC50	330
CCCC(F)(F)c1cc2c(cn1)C(C)(C)CN2C(=O)CN1C[C@@H](C)NC[C@@H]1CN1CC(CC)OCC1=O (single isomer, unassigned) [Example 89, dihydrochloride]	EC50	6.5

Now examine the next entry.
Specify EC50 for CCCC(F)(F)c1cc2c(cn1)C(C)(C)CN2C(=O)CN1C[C@@H](C)NC[C@@H]1CN1CC(CC)OCC1=O (single isomer, unassigned) [Example 88, dihydrochloride] , system EVSA-T (human breast carcinoma). 14
